Values from patent US20140058103A1

Give IC50 for every item shown.
Test System: PI3K delta (Homo sapiens)
Assay Text: Luciferase-coupled chemiluminescence kinase assay (ATP consumption, KinaseGlo)

(Q) For the record CCn1c(C(=O)NCC2CC2)nc2c(N3CCC(n4c(=O)[nH]c5ncccc54)CC3)ncnc21 [Compound 270] , what value of IC50 is listed for PI3K delta (Homo sapiens)?
(A) < 50 nM

(Q) For the record Cn1c(-c2cc[nH]c2)nc2c(N3CCC(n4c(=O)[nH]c5ccccc54)CC3)ncnc21 [Compound 166] , what value of IC50 is listed for PI3K delta (Homo sapiens)?
(A) 500 to 1500 nM

(Q) For the record Cn1c(-c2ccncn2)nc2c(N3CCC(n4c(=O)[nH]c5ccccc54)CC3)ncnc21 [Compound 298] , what value of IC50 is listed for PI3K delta (Homo sapiens)?
(A) 250 to 500 nM

(Q) For the record Cn1c(C(=O)NCC2CC2)nc2c(N3CCCC(n4c(=O)[nH]c5ccccc54)C3)ncnc21 (stereo not shown) [Compound 256] , what value of IC50 is listed for PI3K delta (Homo sapiens)?
(A) 250 to 500 nM

(Q) For the record Cn1c(C(=O)NCCCO)nc2c(N3CCC4(CC3)C(=O)Nc3ccccc34)ncnc21 [Compound 19] , what value of IC50 is listed for PI3K delta (Homo sapiens)?
(A) 50 to 250 nM

(Q) For the record Cn1c(C(=O)NCC2CC2)nc2c(N3CCN(C4=NS(=O)(=O)c5ccccc54)CC3)ncnc21 [Compound 264] , what value of IC50 is listed for PI3K delta (Homo sapiens)?
(A) 500 to 1500 nM

(Q) For the record CCn1c(-c2cnn(C)c2)nc2c(N3CCC(n4c(=O)[nH]c5ncccc54)CC3)ncnc21 [Compound 323] , what value of IC50 is listed for PI3K delta (Homo sapiens)?
(A) < 50 nM

(Q) For the record Cn1cc(-c2nc3c(N4CC[C@@H](n5c(=O)[nH]c6ccccc65)[C@H](CO)C4)ncnc3n2C)cn1 [Compound 338] , what value of IC50 is listed for PI3K delta (Homo sapiens)?
(A) 50 to 250 nM

(Q) For the record Cn1cc(-c2nc3c(N4CCN(S(=O)(=O)c5cccc(C(F)(F)F)c5)CC4)ncnc3n2C)cn1 [Compound 377] , what value of IC50 is listed for PI3K delta (Homo sapiens)?
(A) 250 to 500 nM

(Q) For the record Cn1c(C(=O)NC2CCC2)nc2c(N3CCC(n4c(=O)[nH]c5ccccc54)CC3)ncnc21 [Compound 44] , what value of IC50 is listed for PI3K delta (Homo sapiens)?
(A) 50 to 250 nM

(Q) For the record Cn1c(N2CCCC2)nc2c(N3CCC(n4c(=O)[nH]c5ccccc54)CC3)ncnc21 [Compound 126] , what value of IC50 is listed for PI3K delta (Homo sapiens)?
(A) 500 to 1500 nM

(Q) For the record Cc1ccc(-c2nc3c(N4CCC(n5c(=O)[nH]c6ccccc65)CC4)ncnc3n2C)o1 [Compound 115] , what value of IC50 is listed for PI3K delta (Homo sapiens)?
(A) 250 to 500 nM

(Q) For the record CCn1c(C(=O)NCC(C)(C)O)nc2c(N3CCC4(CC3)C(=O)Nc3ccccc34)ncnc21 [Compound 224] , what value of IC50 is listed for PI3K delta (Homo sapiens)?
(A) < 50 nM

(Q) For the record CON(C)C(=O)c1nc2c(N3CCC(n4c(=O)[nH]c5ccccc54)CC3)ncnc2n1C [Compound 94] , what value of IC50 is listed for PI3K delta (Homo sapiens)?
(A) 500 to 1500 nM

(Q) For the record Cn1c(-c2cccnn2)nc2c(N3CCC(n4c(=O)[nH]c5ncccc54)CC3)ncnc21 [Compound 335] , what value of IC50 is listed for PI3K delta (Homo sapiens)?
(A) 50 to 250 nM

(Q) For the record Cn1cc(-c2nc3c(N4CCN(c5ccc(OCc6ccc7ccccc7n6)cc5)CC4)ncnc3n2C)cn1 [Compound 361] , what value of IC50 is listed for PI3K delta (Homo sapiens)?
(A) 500 to 1500 nM

----------
Test System: PI3K delta (Homo sapiens, UniProt O00329)
Sequence (O00329 whole entry): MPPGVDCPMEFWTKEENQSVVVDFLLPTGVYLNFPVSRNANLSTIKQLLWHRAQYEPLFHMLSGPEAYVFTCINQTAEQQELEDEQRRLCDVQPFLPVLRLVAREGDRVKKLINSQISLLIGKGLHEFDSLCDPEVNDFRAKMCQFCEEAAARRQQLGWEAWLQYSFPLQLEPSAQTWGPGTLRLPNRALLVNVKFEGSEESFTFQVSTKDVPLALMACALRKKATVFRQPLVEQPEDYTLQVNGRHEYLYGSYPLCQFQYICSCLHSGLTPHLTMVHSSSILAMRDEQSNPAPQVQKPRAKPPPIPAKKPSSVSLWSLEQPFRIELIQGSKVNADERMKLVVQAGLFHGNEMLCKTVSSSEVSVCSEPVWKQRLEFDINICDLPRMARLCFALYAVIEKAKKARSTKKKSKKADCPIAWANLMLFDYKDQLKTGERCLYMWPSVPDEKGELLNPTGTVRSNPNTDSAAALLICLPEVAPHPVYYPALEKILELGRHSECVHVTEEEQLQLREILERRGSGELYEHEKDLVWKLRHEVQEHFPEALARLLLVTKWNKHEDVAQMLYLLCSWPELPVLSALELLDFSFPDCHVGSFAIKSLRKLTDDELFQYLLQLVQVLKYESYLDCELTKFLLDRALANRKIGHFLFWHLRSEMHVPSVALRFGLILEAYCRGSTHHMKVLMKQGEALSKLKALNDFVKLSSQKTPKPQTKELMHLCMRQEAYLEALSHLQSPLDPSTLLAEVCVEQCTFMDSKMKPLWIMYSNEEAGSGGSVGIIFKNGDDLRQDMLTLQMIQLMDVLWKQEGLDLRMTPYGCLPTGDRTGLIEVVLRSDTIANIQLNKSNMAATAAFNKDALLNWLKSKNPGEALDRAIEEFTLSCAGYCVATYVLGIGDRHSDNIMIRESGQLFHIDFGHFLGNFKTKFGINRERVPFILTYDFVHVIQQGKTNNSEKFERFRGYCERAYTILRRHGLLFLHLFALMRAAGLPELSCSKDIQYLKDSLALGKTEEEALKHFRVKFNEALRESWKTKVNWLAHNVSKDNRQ
Sequence (P27986 whole entry partner): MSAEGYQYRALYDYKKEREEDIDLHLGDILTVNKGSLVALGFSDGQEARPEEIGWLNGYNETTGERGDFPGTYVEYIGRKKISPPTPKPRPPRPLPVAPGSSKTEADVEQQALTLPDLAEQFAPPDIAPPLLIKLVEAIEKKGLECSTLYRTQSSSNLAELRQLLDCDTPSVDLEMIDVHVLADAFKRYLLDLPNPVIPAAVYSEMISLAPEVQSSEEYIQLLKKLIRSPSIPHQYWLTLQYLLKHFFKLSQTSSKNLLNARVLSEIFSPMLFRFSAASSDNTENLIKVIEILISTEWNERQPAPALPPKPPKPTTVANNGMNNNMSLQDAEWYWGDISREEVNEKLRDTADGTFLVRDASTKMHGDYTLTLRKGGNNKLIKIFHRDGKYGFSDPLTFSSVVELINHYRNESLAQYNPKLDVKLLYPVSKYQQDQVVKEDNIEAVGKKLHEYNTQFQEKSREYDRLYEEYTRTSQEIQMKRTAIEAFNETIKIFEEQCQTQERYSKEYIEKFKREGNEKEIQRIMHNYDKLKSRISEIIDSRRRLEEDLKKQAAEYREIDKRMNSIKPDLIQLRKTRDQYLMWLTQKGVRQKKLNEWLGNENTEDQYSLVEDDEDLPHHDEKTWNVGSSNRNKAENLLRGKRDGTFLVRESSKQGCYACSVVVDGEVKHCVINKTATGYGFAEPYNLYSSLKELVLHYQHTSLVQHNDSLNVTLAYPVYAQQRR
Assay Text: Luciferase-coupled chemiluminescence kinase assay (ATP consumption, KinaseGlo)
Type: biochemical
Property Name: IC50

(Q) Can you share its IC50? I mean this compound: CC(CNC(=O)c1nc2c(N3CCC(n4c(=O)[nH]c5ccccc54)CC3)ncnc2n1C)c1ccccc1 (stereo not shown)
(A) 250 to 500 nM

(Q) Can you share its IC50? I mean this compound: "Cn1c(C(=O)NCc2cccc(F)c2)nc2c(N3CCC(n4c(=O)[nH]c5ccccc54)CC3)ncnc21"
(A) 50 to 250 nM

(Q) Can you share its IC50? I mean this compound: "COc1ccc(CNC(=O)c2nc3c(N4CCC(n5c(=O)[nH]c6ccccc65)CC4)ncnc3n2C)cc1"
(A) 250 to 500 nM

(Q) Can you share its IC50? I mean this compound: "Cn1c(-c2cn[nH]c2C(F)(F)F)nc2c(N3CCC(n4c(=O)[nH]c5ccccc54)CC3)ncnc21"
(A) 50 to 250 nM

(Q) Can you share its IC50? I mean this compound: "CCn1cc(-c2nc3c(N4CCN(c5ccccc5)CC4)ncnc3n2C)cn1"
(A) 500 to 1500 nM

(Q) Can you share its IC50? I mean this compound: "CCNC(=O)c1nc2c(N3CCC4(CC3)C(=O)Nc3ccccc34)ncnc2n1C"
(A) 50 to 250 nM

(Q) Can you share its IC50? I mean this compound: CN(C)C1CN(C(=O)c2nc3c(N4CCC5(CC4)C(=O)NCC5c4ccccc4)ncnc3n2C)C1 (stereo not shown)
(A) 500 to 1500 nM

(Q) Can you share its IC50? I mean this compound: "Cn1cc(-c2nc3c(N4CCC(C#N)(c5ccccc5)CC4)ncnc3n2C)cn1"
(A) 50 to 250 nM

(Q) Can you share its IC50? I mean this compound: "CCc1nnc(-c2nc3c(N4CCC5(CC4)C(=O)Nc4ccccc45)ncnc3n2CC)o1"
(A) < 50 nM

(Q) Can you share its IC50? I mean this compound: "CCn1c(-c2nnc(C3CC3)o2)nc2c(N3CCC4(CC3)C(=O)Nc3ccccc34)ncnc21"
(A) < 50 nM

(Q) Can you share its IC50? I mean this compound: "Cn1cncc1-c1nc2c(N3CCC(n4c(=O)[nH]c5ccccc54)CC3)ncnc2n1C"
(A) < 50 nM

(Q) Can you share its IC50? I mean this compound: "COc1ccccc1CNC(=O)c1nc2c(N3CCC4(CC3)C(=O)Nc3ccccc34)ncnc2n1C"
(A) 500 to 1500 nM

(Q) Can you share its IC50? I mean this compound: "Cn1c(C(=O)NCC2CC2)nc2c(N3CCC(C#N)(c4ccccc4)CC3)ncnc21"
(A) 50 to 250 nM

(Q) Can you share its IC50? I mean this compound: "CCc1nc2c(N3CCC(n4c(=O)[nH]c5ccccc54)CC3)ncnc2n1C"
(A) 500 to 1500 nM

(Q) Can you share its IC50? I mean this compound: "Cn1cc(-c2nc3c(N4CCC(n5c(=O)[nH]c6cnccc65)CC4)ncnc3n2C)cn1"
(A) 250 to 500 nM

(Q) Can you share its IC50? I mean this compound: "COC(=O)[C@@H]1CN(c2ncnc3c2nc(-c2cnn(C)c2)n3C)CC[C@H]1n1c(=O)[nH]c2ccccc21"
(A) < 50 nM

(Q) Can you share its IC50? I mean this compound: "Cn1cc(-c2nc3c(N4CCN(S(=O)(=O)Cc5ccccc5)CC4)ncnc3n2C)cn1"
(A) 250 to 500 nM

(Q) Can you share its IC50? I mean this compound: "CCCNC(=O)c1nc2c(N3CCC4(CC3)C(=O)Nc3ccccc34)ncnc2n1C"
(A) 50 to 250 nM

(Q) Can you share its IC50? I mean this compound: "CCCNC(=O)c1nc2c(N3CCC4(CC3)C(=O)Nc3ccccc34)ncnc2n1CC"
(A) < 50 nM

(Q) Can you share its IC50? I mean this compound: CCn1c(C(=O)NC(C)C2CC2)nc2c(N3CCC(n4c(=O)[nH]c5ccccc54)CC3)ncnc21 (stereo not shown)
(A) < 50 nM

(Q) Can you share its IC50? I mean this compound: "Cn1c(-c2cnn(CCO)c2)nc2c(N3CCC(n4c(=O)[nH]c5ccccc54)CC3)ncnc21"
(A) 50 to 250 nM

(Q) Can you share its IC50? I mean this compound: "CC(C)CNC(=O)c1nc2c(N3CCC4(CC3)C(=O)Nc3ccccc34)ncnc2n1C"
(A) < 50 nM

(Q) Can you share its IC50? I mean this compound: "O=C(NCC1CC1)c1nc2c(N3CCC4(CC3)C(=O)Nc3ccccc34)ncnc2n1C1CC1"
(A) 50 to 250 nM

(Q) Can you share its IC50? I mean this compound: "Cn1c(C(=O)NCC(C)(C)O)nc2c(N3CCC4(CC3)C(=O)Nc3ccccc34)ncnc21"
(A) 50 to 250 nM

(Q) Can you share its IC50? I mean this compound: "Cn1cc(-c2nc3c(N4CCC(n5c(=O)[nH]c6c(F)cccc65)CC4)ncnc3n2C)cn1"
(A) < 50 nM

(Q) Can you share its IC50? I mean this compound: "Cn1c(C(=O)NCCCCO)nc2c(N3CCC(n4c(=O)[nH]c5ccccc54)CC3)ncnc21"
(A) 50 to 250 nM

(Q) Can you share its IC50? I mean this compound: "Cn1c(-c2cccnn2)nc2c(N3CCC(n4c(=O)[nH]c5ccccc54)CC3)ncnc21"
(A) 50 to 250 nM

(Q) Can you share its IC50? I mean this compound: "CCn1c(-c2ccnnc2)nc2c(N3CCC4(CC3)C(=O)Nc3ccccc34)ncnc21"
(A) < 50 nM

(Q) Can you share its IC50? I mean this compound: "CCn1c(C(=O)NCCCCO)nc2c(N3CCC4(CC3)C(=O)Nc3ccccc34)ncnc21"
(A) 50 to 250 nM

(Q) Can you share its IC50? I mean this compound: "CCn1c(-c2ccnnc2)nc2c(N3CCC(n4c(=O)[nH]c5ccccc54)CC3)ncnc21"
(A) < 50 nM

(Q) Can you share its IC50? I mean this compound: "Cn1c(-c2ccnnc2)nc2c(N3CCC4(CC3)C(=O)Nc3ccccc34)ncnc21"
(A) 50 to 250 nM
